# Assay target: TXA2 synthase (Homo sapiens)
# Sequence (P24557 whole entry): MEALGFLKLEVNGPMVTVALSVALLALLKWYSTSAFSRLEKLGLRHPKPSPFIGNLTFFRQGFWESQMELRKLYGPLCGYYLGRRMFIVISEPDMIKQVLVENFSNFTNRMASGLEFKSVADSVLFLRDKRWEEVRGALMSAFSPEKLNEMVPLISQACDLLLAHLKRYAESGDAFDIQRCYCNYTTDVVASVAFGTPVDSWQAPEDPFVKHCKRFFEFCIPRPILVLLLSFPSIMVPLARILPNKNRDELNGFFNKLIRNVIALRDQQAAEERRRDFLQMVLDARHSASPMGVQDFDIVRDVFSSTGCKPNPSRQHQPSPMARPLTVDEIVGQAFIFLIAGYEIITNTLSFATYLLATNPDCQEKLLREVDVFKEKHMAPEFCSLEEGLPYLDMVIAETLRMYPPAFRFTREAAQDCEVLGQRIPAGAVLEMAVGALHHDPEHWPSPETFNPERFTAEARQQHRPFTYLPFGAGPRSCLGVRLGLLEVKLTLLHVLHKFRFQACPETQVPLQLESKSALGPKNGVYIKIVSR
Reported endpoint: IC50

1) CC(C)c1ccc2ncn(/C=C/C(=O)NCCCCc3ccccn3)c(=O)c2c1 [drawing 17]: > 10 µM

====

# Assay target: PAF receptor (dog platelets) (Canis lupus familiaris, UniProt A0A8I3NSH0)
# Construct: followed by 2×10^7 dog platelets
# Sequence (A0A8I3NSH0 1-343): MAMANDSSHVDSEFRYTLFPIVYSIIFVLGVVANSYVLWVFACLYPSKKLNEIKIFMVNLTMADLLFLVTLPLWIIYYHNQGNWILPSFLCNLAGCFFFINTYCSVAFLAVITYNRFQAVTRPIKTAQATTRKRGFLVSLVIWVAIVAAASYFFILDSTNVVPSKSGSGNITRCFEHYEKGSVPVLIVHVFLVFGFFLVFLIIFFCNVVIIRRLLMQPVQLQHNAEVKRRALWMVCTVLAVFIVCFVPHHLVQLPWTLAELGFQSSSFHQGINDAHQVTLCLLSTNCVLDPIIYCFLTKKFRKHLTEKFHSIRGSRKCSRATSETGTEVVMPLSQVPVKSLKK
# Measurement protocol: PAF Radioreceptor Binding Assay
# Measurement parameters: 3H-PAF
Each item that follows carries a reported IC50.
Reported endpoint: IC50

1. CC(C)c1ccc2ncn(/C=C/C(=O)NCCCCOc3cccnc3)c(=O)c2c1 [drawing 14]: > 1000 nM
2. CC(C)c1ccc2ncn(/C=C/C(=O)NCCCCCCc3cccnc3)c(=O)c2c1: > 1000 nM
3. CC(C)c1ccc2ncn(/C=C/C(=O)NCCCNc3cccnc3)c(=O)c2c1: > 1000 nM
4. CC(C)c1ccc2ncn(/C=C/C(=O)NCCCCc3cccnc3)c(=O)c2c1 [drawing 12]: 650 nM
5. CC(C)c1ccc2ncn(/C=C/C(=O)NCCCCc3ccccn3)c(=O)c2c1 [drawing 17]: > 1000 nM
6. CC(C)c1ccc2ncn(/C=C/C(=O)NCCCCn3ccnc3)c(=O)c2c1 [drawing 15]: > 1000 nM

Cited source for all entries: patent US4599336A
